# target system: FP receptor in porcine tissue (retinal microvessels, uterine myometrium) (pig)
# protocol text: cell-based or functional assay
Non-standard residues stand in square brackets, D forms with d. No end group written: not given here.
Reported % Inhibition of Maximal Response, 100 µM peptide, 10^-7 M PGF2α, porcine eyecup values for a set of binders
measured endpoint: % Inhibition of Maximal Response, 100 µM peptide, 10^-7 M PGF2α, porcine eyecup

{"binder": "[dI][dL]G[dH][dR][dD][dY]-NH2 (N-terminus assumed; SMILES CC[C@@H](C)[C@@H](N)C(=O)N[C@H](CC(C)C)C(=O)NCC(=O)N[C@H](Cc1c[nH]cn1)C(=O)N[C@H](CCCNC(=N)N)C(=O)N[C@H](CC(=O)O)C(=O)N[C@H](Cc1ccc(O)cc1)C(N)=O) [PCP-13.20]", "reading": "50.4%"}
{"binder": "[dS][dN][dV][dL][dC][dS][dI][dF] [PCP-15]", "reading": "88.1%"}
